This listing pairs sequences with measured total protein half-life in vivo.
Assay: total protein half-life in vivo (active degradation + dilution); higher = more stable protein
Conditions: wild type E. coli NCM3722; growth: C-lim chemostat; doubling time 3 h
The answer is to be given in h; state only the numeric part.

Query sequence	Unit abbreviation	total protein half-life in vivo
MTNPQFAGHPFGTTVTAETLRNTFAPLTQWEDKYRQLIMLGKQLPALPDELKAQAKEIAGCENRVWLGYTVAENGKMHFFGDSEGRIVRGLLAVLLTAVEGKTAAELQAQSPLALFDELGLRAQLSASRSQGLNALSEAIIAATKQV [P0AGF2]	h	3.4
METVAYADFARLEMRVGKIVEVKRHENADKLYIVQVDVGQKTLQTVTSLVPYYSEEELMGKTVVVLCNLQKAKMRGETSECMLLCAETDDGSESVLLTPERMMPAGVRVV	h	2.97
MKYQLTALEARVIGCLLEKQVTTPEQYPLSVNGVVTACNQKTNREPVMNLSESEVQEQLDNLVKRHYLRTVSGFGNRVTKYEQRFCNSEFGDLKLSAAEVALITTLLLRGAQTPGELRSRAARMYEFSDMAEVESTLEQLANREDGPFVVRLAREPGKRENRYMHLFSGEVEDQPAVTDMSNAVDGDLQARVEALEIEVAELKQRLDSLLAHLGD	h	3.01
MQKFDTRTFQGLILTLQDYWARQGCTIVQPLDMEVGAGTSHPMTCLRELGPEPMAAAYVQPSRRPTDGRYGENPNRLQHYYQFQVVIKPSPDNIQELYLGSLKELGMDPTIHDIRFVEDNWENPTLGAWGLGWEVWLNGMEVTQFTYFQQVGGLECKPVTGEITYGLERLAMYIQGVDSVYDLVWSDGPLGKTTYGDVFHQNEVEQSTYNFEYADVDFLFTCFEQYEKEAQQLLALENPLPLPAYERILKAAHSFNLLDARKAISVTERQRYILRIRTLTKAVAEAYYASREALGFPMCNKDK	h	3.4
MSQVSTEFIPTRIAILTVSNRRGEEDDTSGHYLRDSAQEAGHHVVDKAIVKENRYAIRAQVSAWIASDDVQVVLITGGTGLTEGDQAPEALLPLFDREVEGFGEVFRMLSFEEIGTSTLQSRAVAGVANKTLIFAMPGSTKACRTAWENIIAPQLDARTRPCNFHPHLKK [P0AEZ9]	h	3.17
MNIKGKALLAGCIALAFSNMALAEDIKVAVVGAMSGPVAQYGDQEFTGAEQAVADINAKGGIKGNKLQIVKYDDACDPKQAVAVANKVVNDGIKYVIGHLCSSSTQPASDIYEDEGILMITPAATAPELTARGYQLILRTTGLDSDQGPTAAKYILEKVKPQRIAIVHDKQQYGEGLARAVQDGLKKGNANVVFFDGITAGEKDFSTLVARLKKENIDFVYYGGYHPEMGQILRQARAAGLKTQFMGPEGVANVSLSNIAGESAEGLLVTKPKNYDQVPANKPIVDAIKAKKQDPSGAFVWTTYAALQSLQAGLNQSDDPAEIAKYLKANSVDTVMGPLTWDEKGDLKGFEFGVFDWHANGTATDAK [P0AD96]	h	3.27
MMQPVINAPEIATAREQQLFNGKNFHVFIYNKTESISGLHQHDYYEFTLVLTGRYFQEINGKRVLLERGDFVFIPLGSHHQSFYEFGATRILNVGISKRFFEQHYLPLLPYCFVASQVYRTNNAFLTYVETVISSLNFRETGLEEFVEMVTFYVINRLRHYREEQVIDDVPQWLKSTVEKMHDKEQFSESALENMVALSAKSQEYLTRATQRYYGKTPMQIINEIRINFAKKQLEMTNYSVTDIAFEAGYSSPSLFIKTFKKLTSFTPKSYRKKLTEFNQ	h	1.18
MIYPDEAMLYAPVEWHDCSEGFEDIRYEKSTDGIAKITINRPQVRNAFRPLTVKEMIQALADARYDDNIGVIILTGAGDKAFCSGGDQKVRGDYGGYKDDSGVHHLNVLDFQRQIRTCPKPVVAMVAGYSIGGGHVLHMMCDLTIAADNAIFGQTGPKVGSFDGGWGASYMARIVGQKKAREIWFLCRQYDAKQALDMGLVNTVVPLADLEKETVRWCREMLQNSPMALRCLKAALNADCDGQAGLQELAGNATMLFYMTEEGQEGRNAFNQKRQPDFSKFKRNP [P0ABU0]	h	2.9
MSFFISDAVAATGAPAQGSPMSLILMLVVFGLIFYFMILRPQQKRTKEHKKLMDSIAKGDEVLTNGGLVGRVTKVAENGYIAIALNDTTEVVIKRDFVAAVLPKGTMKAL [P0ADZ7]	h	3.16
MANWQSIDELQDIASDLPRFIHALDELSRRLGLNITPLTADHISLRCHQNATAERWRRGFEQCGELLSENMINGRPICLFKLHEPVQVAHWQFSIVELPWPGEKRYPHEGWEHIEIVLPGDPETLNARALALLSDEGLSLPGISVKTSSPKGEHERLPNPTLAVTDGKTTIKFHPWSIEEIVASEQSA	h	2.23

# input sequence: MSDQIIARVSQSLAKEQSLESLVRQLLEMLEMVTDMESTYLTKVDVEARLQHIMFARNSQKMYIPENFTVSWDYSLCKRAIDENCFFSDEVPDRWGDCIAARNLGITTFLSTPIHLPDGSFYGTLCAASSEKRQWSERAEQVLQLFAGLIAQYIQKEALVEQLREANAALIAQSYTDSLTGLPNRRAIFENLTTLFSLARHLNHKIMIAFIDLDNFKLINDRFGHNSGDLFLIQVGERLNTLQQNGEVIGRLGGDEFLVVSLNNENADISSLRERIQQQIRGEYHLGDVDLYYPGASLGIVEVDPETTDADSALHAADIAMYQEKKHKQKTPFVAHPALHS ; wanted: its total protein half-life in vivo
0.233

# input sequence: MSKLDLNALNELPKVDRILALAETNAELEKLDAEGRVAWALDNLPGEYVLSSSFGIQAAVSLHLVNQIRPDIPVILTDTGYLFPETYRFIDELTDKLKLNLKVYRATESAAWQEARYGKLWEQGVEGIEKYNDINKVEPMNRALKELNAQTWFAGLRREQSGSRANLPVLAIQRGVFKVLPIIDWDNRTIYQYLQKHGLKYHPLWDEGYLSVGDTHTTRKWEPGMAEEETRFFGLKRECGLHEG ; wanted: its total protein half-life in vivo
2.11

The measurements presented in this section are drawn from the supplement of paper PMC11246515.
